measuredTarget: HA-L797A CaSR mutant (Rattus norvegicus, UniProt P48442, L797A)
Construct: mGluR5 signal peptide (N)
Sequence (P48442 20-1079 L797A): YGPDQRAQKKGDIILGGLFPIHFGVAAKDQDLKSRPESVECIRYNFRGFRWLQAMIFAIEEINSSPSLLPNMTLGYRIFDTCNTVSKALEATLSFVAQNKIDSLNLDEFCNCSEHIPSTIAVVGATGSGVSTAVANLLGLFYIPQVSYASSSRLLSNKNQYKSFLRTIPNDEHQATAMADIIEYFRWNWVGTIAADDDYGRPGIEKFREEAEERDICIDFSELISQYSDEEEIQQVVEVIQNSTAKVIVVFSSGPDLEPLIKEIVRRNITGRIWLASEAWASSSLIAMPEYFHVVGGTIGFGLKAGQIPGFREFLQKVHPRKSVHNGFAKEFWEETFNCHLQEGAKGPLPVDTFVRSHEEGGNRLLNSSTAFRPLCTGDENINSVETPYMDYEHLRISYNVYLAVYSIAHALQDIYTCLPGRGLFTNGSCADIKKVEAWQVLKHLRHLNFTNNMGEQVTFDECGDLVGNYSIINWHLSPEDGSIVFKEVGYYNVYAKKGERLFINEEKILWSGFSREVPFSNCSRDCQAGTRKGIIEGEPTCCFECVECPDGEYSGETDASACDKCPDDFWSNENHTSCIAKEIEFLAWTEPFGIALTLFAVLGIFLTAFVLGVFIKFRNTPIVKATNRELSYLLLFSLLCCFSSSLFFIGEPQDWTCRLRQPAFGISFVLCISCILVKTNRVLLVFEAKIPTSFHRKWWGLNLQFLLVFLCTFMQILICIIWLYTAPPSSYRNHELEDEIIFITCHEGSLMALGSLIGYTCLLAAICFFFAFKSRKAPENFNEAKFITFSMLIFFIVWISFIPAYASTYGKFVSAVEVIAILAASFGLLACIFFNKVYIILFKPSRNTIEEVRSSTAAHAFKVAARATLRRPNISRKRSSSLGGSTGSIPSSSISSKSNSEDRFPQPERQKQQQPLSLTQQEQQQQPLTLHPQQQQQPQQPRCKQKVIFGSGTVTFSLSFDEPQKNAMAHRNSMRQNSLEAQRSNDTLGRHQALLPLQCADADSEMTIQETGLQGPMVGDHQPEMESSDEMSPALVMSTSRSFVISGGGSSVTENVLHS
procedureText: IP-One assay, HEK293T transiently transfected
conditionDescription: Ca^2+ alone
readoutName: pEC50
Scale for pEC50: -log10 of concentration given in mol/L; no unit attached.

Query: Sample [Ca+2] — what was its pEC50?
Reply: 1.93
